Consider the following compounds and their measured fold induction at 50 µM readings.
Tested on: riboswitch 15D10
experiment: Luciferase reporter with 15D10 riboswitch (Luci-15D10) in AML12 cells
Format: cell-based, mouse
testParameters: Mus musculus, AML12, 24 h, 50 μM; AML12 cells; Table 3; read-out: Fold increase in riboswitch 15D10-regulated luciferase expression, AML
The answer should be written as a number, with no unit following it.

Below: 3 compounds and their reported fold induction at 50 µM.
{"columns": ["compoundStructure", "testedTarget", "fold induction at 50 µM"],
 "data": [
  ["C/C(=C(\\CCO)SC(=O)c1cc(Cl)ccc1Oc1ccccc1)N(C=O)Cc1cnc(C)nc1N", "riboswitch 15D10", 509],
  ["C/C(=C(\\CCO)SC(=O)c1ccc(Oc2ccccc2)cc1Cl)N(C=O)Cc1cnc(C)nc1N", "riboswitch 15D10", 383],
  ["C/C(=C(\\CCO)SC(=O)c1ccccc1Oc1ccc2ccccc2c1)N(C=O)Cc1cnc(C)nc1N", "riboswitch 15D10", 192]
]}

Would you kindly look at the next entry?
Problem: Which fold induction at 50 µM is listed for `C/C(=C(\CCO)SC(=O)c1ccc(Oc2cccc(Cl)c2)cc1C)N(C=O)Cc1cnc(C)nc1N` ?
Solution: 231

###

Tested on: riboswitch 15D10
experiment: Luciferase reporter with 15D10 riboswitch (Luci-15D10) in AML12 cells
Format: cell-based, mouse
testParameters: Mus musculus, AML12, 24 h, 50 μM; AML12 cells; Table 3; read-out: Fold increase in riboswitch 15D10-regulated luciferase expression, AML
Criterion: fold induction at 50 µM meeting or surpassing 40. Met: Condition met. Not met: Condition not met.

Previously resolved entries follow.
{"columns": ["compoundStructure", "testedTarget", "class"],
 "data": [
  ["C/C(=C(\\CCO)SC(=O)c1ccccc1Oc1ccc(C(F)(F)F)nc1)N(C=O)Cc1cnc(C)nc1N", "riboswitch 15D10", "Condition met"],
  ["C/C(=C(\\CCO)SC(=O)c1c(F)cccc1OCc1ccccc1)N(C=O)Cc1cnc(C)nc1N", "riboswitch 15D10", "Condition met"],
  ["C/C(=C(\\CCO)SC(=O)c1ccc(C(C)(C)C)cc1Oc1cccc(C(C)(C)C)c1)N(C=O)Cc1cnc(C)nc1N", "riboswitch 15D10", "Condition not met"],
  ["C/C(=C(\\CCO)SC(=O)c1ccccc1Oc1ccccc1Cl)N(C=O)Cc1cnc(C)nc1N", "riboswitch 15D10", "Condition met"]
]}

Problem: Please indicate if the recorded fold induction at 50 µM for `C/C(=C(\CCO)SC(=O)c1c(C)cccc1Oc1ccccc1)N(C=O)Cc1cnc(C)nc1N` meets or exceeds 40.
Solution: Condition not met

Problem: Please indicate if the recorded fold induction at 50 µM for `C/C(=C(\CCO)SC(=O)c1ccccc1Oc1cccc(C#N)c1)N(C=O)Cc1cnc(C)nc1N` meets or exceeds 40.
Solution: Condition met

Problem: Please indicate if the recorded fold induction at 50 µM for `C/C(=C(\CCO)SC(=O)c1ccccc1Oc1cccc2cccnc12)N(C=O)Cc1cnc(C)nc1N` meets or exceeds 40.
Solution: Condition not met

###

System: riboswitch 15D10
experiment: Luciferase reporter with 15D10 riboswitch (Luci-15D10) in AML12 cells
Assay type: cell-based, mouse
testParameters: Mus musculus, AML12, 24 h, 50 μM; AML12 cells; Table 3; read-out: Fold increase in riboswitch 15D10-regulated luciferase expression, AML
assayMetric: fold induction at 50 µM
The answer should be written as a number, with no unit following it.

{"columns": ["compound", "fold induction at 50 µM"],
 "data": [
  ["C/C(=C(\\CCO)SC(=O)c1cc(Cl)ccc1Oc1ccc(F)cc1)N(C=O)Cc1cnc(C)nc1N [Compound M134]", 408],
  ["C/C(=C(\\CCO)SC(=O)c1cc(Cl)ccc1Oc1ccccc1Cl)N(C=O)Cc1cnc(C)nc1N [Compound M158]", 235],
  ["C/C(=C(\\CCO)SC(=O)c1ccccc1Oc1c(Cl)cccc1Cl)N(C=O)Cc1cnc(C)nc1N [Compound M138]", 195],
  ["C/C(=C(\\CCO)SC(=O)c1c(F)cccc1Oc1ccccc1Cl)N(C=O)Cc1cnc(C)nc1N [Compound M142]", 184],
  ["C/C(=C(\\CCO)SC(=O)c1ccccc1Oc1ccccc1Br)N(C=O)Cc1cnc(C)nc1N [Compound M137]", 288],
  ["C/C(=C(\\CCO)SC(=O)c1ccc(Oc2ccccc2)cc1Oc1ccccc1)N(C=O)Cc1cnc(C)nc1N [Compound M152]", 36.6]
]}

Would you kindly look at the next entry?
Problem: Which fold induction at 50 µM is listed for CCOc1ccc(C(=O)S/C(CCO)=C(/C)N(C=O)Cc2cnc(C)nc2N)c(Oc2cccc(F)c2)c1 [Compound M143] ?
Solution: 300
